# Assayed Target: Polyadenylate-binding protein 1 (Homo sapiens) (UniProt P11940)
# Sequence (P11940 whole entry, looked up): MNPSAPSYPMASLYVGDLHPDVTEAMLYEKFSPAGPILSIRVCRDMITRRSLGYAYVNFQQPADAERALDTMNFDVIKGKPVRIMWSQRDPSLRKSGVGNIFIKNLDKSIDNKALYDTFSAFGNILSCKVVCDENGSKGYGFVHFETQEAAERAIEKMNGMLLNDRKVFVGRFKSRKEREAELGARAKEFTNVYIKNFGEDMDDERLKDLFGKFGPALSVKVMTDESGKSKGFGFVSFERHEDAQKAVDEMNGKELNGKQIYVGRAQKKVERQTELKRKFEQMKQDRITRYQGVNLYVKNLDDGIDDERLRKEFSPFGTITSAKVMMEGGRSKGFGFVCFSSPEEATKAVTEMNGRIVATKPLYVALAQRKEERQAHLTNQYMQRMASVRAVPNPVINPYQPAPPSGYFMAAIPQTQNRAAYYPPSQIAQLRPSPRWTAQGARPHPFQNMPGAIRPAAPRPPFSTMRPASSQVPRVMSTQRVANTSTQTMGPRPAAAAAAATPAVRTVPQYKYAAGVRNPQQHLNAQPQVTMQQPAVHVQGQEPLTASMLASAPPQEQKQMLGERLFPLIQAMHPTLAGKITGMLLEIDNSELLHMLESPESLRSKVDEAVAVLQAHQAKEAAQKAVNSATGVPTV
# Protocol Notes: blockers of PABP interaction with poly(A) – biochemical, fluorescence polarization, uHTS, primary screen (AID 2014);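 also: calls also rest on retests at 20 µM and on dose response follow-up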
# Condition Set: PABP-poly(A) RNA binding, confirmation repeats, at 20 µM, stronger effect = higher value
The campaign covered roughly 290,000 compounds. About 3,000 (1%) were called active. The entries come from a sample that favours actives as a whole.
Exercise: for every item that follows, state its recorded inhibition.
All answers are understood in %, so give the number only.

Look up inhibition of `O=C1CC(=O)N(Cc2ccccc2)C(=O)N1CCCCCCN1C(=O)CC(=O)N(Cc2ccccc2)C1=O` and report it.
112

Look up inhibition of `O=c1c2ccccc2nc(/C=C/c2ccco2)n1-c1ccccc1O` and report it.
54.4

Look up inhibition of `O=C(N/N=C/c1c(O)n(Cc2ccccc2)c(=O)[nH]c1=O)c1ccccc1` and report it.
81.4

Look up inhibition of `COc1ccc(N2C(=O)/C(=C/c3ccco3)C(=O)NC2=S)cc1` and report it.
73.3

Look up inhibition of `CC(C)n1c(=O)c(C=Nc2ccc(Br)cc2)c(O)n(Cc2ccco2)c1=O` and report it.
52

Look up inhibition of `COc1cccc(N2C(=O)NC(=O)/C(=C\c3ccc([N+](=O)[O-])s3)C2=O)c1` and report it.
95.4

* * *

Exercise: for every item that follows, state its recorded inhibition.
# Assayed Target: Polyadenylate-binding protein 1 (Homo sapiens) (UniProt P11940)
# Protocol Notes: blockers of PABP interaction with poly(A) – biochemical, fluorescence polarization, uHTS, primary screen (AID 2014);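 also: calls also rest on retests at 20 µM and on dose response follow-up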
# Condition Set: PABP-poly(A) RNA binding, at 35 µM, stronger effect = higher value
The whole screen tested about 290,000 compounds, of which about 3,000 (1%) were called active. Only a selection was taken, and actives are over-represented in it overall.
All answers are understood in %, so give the number only.

Look up inhibition of CC(=O)Nc1ccc(C(=O)C(Cc2ccccc2)N(C)C)cc1 (stereo unspecified) and report it.
-3.6

Look up inhibition of `CN(C)C(=O)Oc1ccc2c(c1)O/C(=C\c1ccccc1)C2=O` and report it.
-6.7

Look up inhibition of `Cn1c(O)c(C=Nc2ccc3c(c2)CCC3)c(=O)n(C)c1=O` and report it.
-0.7

Look up inhibition of `O=C1NC(=O)N(CCc2ccc(F)cc2)C(=O)/C1=C/C=C/c1ccccc1` and report it.
-13.4

Look up inhibition of `COc1cccc(OC)c1C(=O)NC(=S)N1C[C@H]2C[C@H](C1)c1cccc(=O)n1C2` and report it.
13.3

Look up inhibition of `COc1cccc(C(=O)N2C[C@H]3C[C@@H](C2)c2cccc(=O)n2C3)c1` and report it.
1.4

Look up inhibition of c1ccc(CC2CCCCN2)cc1 (stereo unspecified) and report it.
1.7

Look up inhibition of `C=CCN1C(=O)NC(=O)/C(=C/c2ccc(OCC(=O)Nc3ccc(C)cc3)cc2)C1=O` and report it.
8.1

Look up inhibition of `CN1CCC(OC(=O)c2cccc(F)c2)CC1` and report it.
-7.8

Look up inhibition of `COc1ccc2[nH]c3c(c2c1)CCN[C@H]3C` and report it.
7.6

Look up inhibition of `CC(C)n1c(=O)c(C=Nc2ccc(Br)cc2)c(O)n(Cc2ccco2)c1=O` and report it.
6
